- experimental system: TYK2 (Homo sapiens, UniProt P29597)
- Sequence (P29597 whole entry): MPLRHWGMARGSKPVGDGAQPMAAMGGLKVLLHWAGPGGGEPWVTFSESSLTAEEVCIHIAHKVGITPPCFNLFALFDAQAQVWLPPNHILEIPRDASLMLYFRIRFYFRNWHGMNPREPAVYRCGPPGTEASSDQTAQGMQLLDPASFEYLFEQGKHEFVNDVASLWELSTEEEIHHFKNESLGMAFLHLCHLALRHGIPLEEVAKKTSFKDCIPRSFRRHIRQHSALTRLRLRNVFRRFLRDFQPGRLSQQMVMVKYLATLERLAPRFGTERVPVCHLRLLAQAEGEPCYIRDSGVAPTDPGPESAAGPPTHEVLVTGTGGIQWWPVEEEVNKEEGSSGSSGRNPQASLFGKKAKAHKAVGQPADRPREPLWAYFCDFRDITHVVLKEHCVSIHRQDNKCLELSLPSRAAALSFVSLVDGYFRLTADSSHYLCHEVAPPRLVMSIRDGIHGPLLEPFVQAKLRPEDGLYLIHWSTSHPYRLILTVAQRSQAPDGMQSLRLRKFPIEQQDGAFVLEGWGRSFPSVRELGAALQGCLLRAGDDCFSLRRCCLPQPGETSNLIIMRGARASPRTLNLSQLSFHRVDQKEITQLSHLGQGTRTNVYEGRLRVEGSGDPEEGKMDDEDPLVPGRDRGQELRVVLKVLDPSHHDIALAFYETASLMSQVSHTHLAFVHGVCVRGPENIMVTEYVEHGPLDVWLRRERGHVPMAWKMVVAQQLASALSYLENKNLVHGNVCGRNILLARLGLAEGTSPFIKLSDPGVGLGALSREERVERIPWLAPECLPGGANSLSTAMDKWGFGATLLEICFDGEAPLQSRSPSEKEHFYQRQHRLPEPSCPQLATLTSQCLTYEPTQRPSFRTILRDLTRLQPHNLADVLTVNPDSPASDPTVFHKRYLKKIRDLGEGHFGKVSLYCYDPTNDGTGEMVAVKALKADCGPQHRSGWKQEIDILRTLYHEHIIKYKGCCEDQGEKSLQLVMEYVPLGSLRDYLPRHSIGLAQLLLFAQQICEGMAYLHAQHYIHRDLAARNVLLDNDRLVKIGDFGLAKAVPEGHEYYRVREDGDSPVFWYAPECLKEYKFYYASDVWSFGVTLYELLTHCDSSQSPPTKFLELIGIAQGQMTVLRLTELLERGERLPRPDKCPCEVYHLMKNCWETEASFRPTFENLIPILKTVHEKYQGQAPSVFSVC
- procedure summary: TYK2 kinase inhibition (Table A1)
- Assay type: biochemical
- applied conditions: Table B1
Where a name gives a salt, the structure may show the parent alone.
readout: IC50 (nM)

I = Cc1nc(S(=O)(=O)N2CCC(CN(C)Cc3ccc4cc3CCc3cncc(c3)Nc3ncc(Cl)c(n3)N4)CC2)cn1C [Example B343, tris(trifluoroacetate)]
II = O=C(Nc1ccc(OC(F)(F)F)cc1)Nc1ccc2cc1CCc1cccc(c1)Nc1ncc(Cl)c(n1)N2 [Example B132, trifluoroacetate]
III = CCS(=O)(=O)NCCNC(=O)Nc1ccc2cc1CCc1cccc(c1)Nc1ncc(Cl)c(n1)N2 [Example B325, trifluoroacetate]
Arrange the items listed above so that IC50 rises from first to last. To answer, arrange all of the labels according to the requested order.
III, II, I
